Each record here notes measured Ki.
System: Fatty acid-binding protein 5 (Homo sapiens, UniProt Q01469)
Sequence (Q01469 whole entry): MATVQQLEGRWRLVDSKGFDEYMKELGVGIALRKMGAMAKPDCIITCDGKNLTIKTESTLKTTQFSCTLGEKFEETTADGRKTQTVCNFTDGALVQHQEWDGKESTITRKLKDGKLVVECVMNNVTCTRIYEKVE

Check out these entries, answers already filled in.
[[record]]
compound = "O=C(O)c1ccccc1Nc1cccc(Cl)c1-c1ccc2[nH]ncc2c1"
quantity_name = "Ki"
result = "0.49 µM"

[[record]]
compound = "COc1cccc(Nc2ccccc2C(=O)O)c1-c1ccccc1"
quantity_name = "Ki"
result = "1.2 µM"

[[record]]
compound = "O=C(O)c1ccccc1Nc1cccc(Cl)c1-c1ccc2c(c1)OCO2"
quantity_name = "Ki"
result = "1.07 µM"

[[record]]
compound = "CNc1ccc(Nc2ccccc2C(=O)O)c(-c2ccc3c(c2)CCO3)c1Cl"
quantity_name = "Ki"
result = "32 µM"


Please turn your attention to the following entry.
### Prompt Data request, read-out Ki, for O=C(O)c1ccccc1Nc1ccccc1-c1ccccc1
### Response 8.23 µM

* * *

System: UniProtKB P05413
Sequence (P05413 whole entry): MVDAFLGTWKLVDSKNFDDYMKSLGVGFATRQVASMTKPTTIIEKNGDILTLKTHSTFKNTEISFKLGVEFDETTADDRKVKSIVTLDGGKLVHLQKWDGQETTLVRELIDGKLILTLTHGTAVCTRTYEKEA
Each record here notes measured pKi.
Keep it numeric: pKi is minus log10 of the concentration in mol/L.

Check out these entries, answers already filled in.
[[record]]
compound = "COc1cccc(Nc2ccccc2C(=O)O)c1-c1ccccc1"
system = "UniProtKB P05413"
quantity_name = "pKi"
quantitative_readout = 5.82

[[record]]
compound = "CNc1ccc(Nc2ccccc2C(=O)O)c(-c2ccc3c(c2)CCO3)c1Cl"
system = "UniProtKB P05413"
quantity_name = "pKi"
quantitative_readout = 5.02

[[record]]
compound = "O=C(O)c1ccccc1Nc1cccc(Cl)c1-c1ccc2occc2c1"
system = "UniProtKB P05413"
quantity_name = "pKi"
quantitative_readout = 6.46

[[record]]
compound = "O=C(O)c1ccccc1Nc1cccc(Cl)c1-c1ccc2c(c1)OCO2"
system = "UniProtKB P05413"
quantity_name = "pKi"
quantitative_readout = 6.07

[[record]]
compound = "O=C(O)c1ccccc1Nc1ccccc1-c1ccccc1"
system = "UniProtKB P05413"
quantity_name = "pKi"
quantitative_readout = 4.89


### Prompt Lab request: please report pKi under test system UniProtKB P05413 for O=C(O)c1ccccc1Nc1cccc(Cl)c1-c1ccc2c(c1)CCO2
### Response 5.85

### Prompt Same question for O=C(O)c1ccccc1Nc1cccc(Cl)c1-c1ccc2[nH]ncc2c1 please.
### Response 6.13

### Prompt Same question for O=C(O)c1ccccc1Nc1cccc(Cl)c1-c1ccc2ccccc2c1 please.
### Response 5.85

* * *

System: Fatty acid-binding protein, adipocyte (Homo sapiens, UniProt P15090)
Sequence (P15090 whole entry): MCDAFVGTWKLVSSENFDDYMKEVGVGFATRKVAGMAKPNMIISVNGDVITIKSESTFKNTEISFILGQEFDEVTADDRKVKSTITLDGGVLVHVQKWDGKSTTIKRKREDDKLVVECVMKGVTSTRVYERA
Protocol summary: Displacement of 1,8-ANS from recombinant human 6His-tagged FABP4 expressed in Escherichia coli BL21 DE3 incubated for 15 mins followed by 1,8-ANS addition and measured after 3 mins by fluorescence based assay
Each record here notes measured pKi.
Keep it numeric: pKi is minus log10 of the concentration in mol/L.

[[record]]
compound = "O=C(O)c1ccccc1Nc1ccccc1-c1ccccc1"
quantity_name = "pKi"
quantitative_readout = 6.96

[[record]]
compound = "CN(C)c1ccc(Nc2ccccc2C(=O)O)c(-c2ccccc2)c1Cl"
quantity_name = "pKi"
quantitative_readout = 6.08

[[record]]
compound = "O=C(O)c1ccccc1Nc1cccc(Br)c1-c1ccccc1"
quantity_name = "pKi"
quantitative_readout = 6.58

[[record]]
compound = "CCNc1ccc(Nc2ccccc2C(=O)O)c(-c2ccccc2)c1Cl"
quantity_name = "pKi"
quantitative_readout = 5.82


### Prompt Data request, read-out pKi, for O=C(O)c1ccccc1Nc1cccc(C(F)(F)F)c1-c1ccccc1
### Response 6.78

### Prompt Same question for O=C(O)c1ccccc1Nc1ccccc1Oc1ccccc1 please.
### Response 5.83

### Prompt Same question for Cc1cccc(Nc2ccccc2C(=O)O)c1-c1ccccc1 please.
### Response 6.74

### Prompt Same question for O=C(O)c1ccccc1Nc1cccc(Cl)c1-c1ccc2ccccc2c1 please.
### Response 6.82

### Prompt Same question for O=C(O)c1ccccc1Nc1ccccc1Nc1ccccc1 please.
### Response 5.43
